ASSAY_EXPLANATION: The drug is tested on Dorea formicigenerans strain: ATCC27755 for biotransformation. The drug concentrations were measured before and after a 12-h incubation by liquid-chromatography-coupled mass spectrometry (LC–MS)
CONDITION_INFO: 2 µM
MEASURED_PARAMETER: Bacterial Biotransformation

Br.CN(C)CCCC1(c2ccc(F)cc2)OCc2cc(C#N)ccc21 (stereo not given) [CITALOPRAM HYDROBROMIDE] = Compound NOT metabolized
CN(CCOc1ccc(CC2SC(=O)NC2=O)cc1)c1ccccn1.O=C(O)/C=C\C(=O)O (stereo not given) [ROSIGLITAZONE MALEATE] = Compound NOT metabolized
CCCCCOC(=O)Nc1nc(=O)n([C@@H]2O[C@H](C)[C@@H](O)[C@H]2O)cc1F = Compound NOT metabolized
OC(CCN1CCCCC1)(c1ccccc1)C1CCCCC1 (stereo not given) = Compound NOT metabolized
CCN(C)C(=O)Oc1cccc([C@H](C)N(C)C)c1.O=C(O)C(O)C(O)C(=O)O [RIVASTIGMINE TARTRATE] = Compound NOT metabolized
CNC(=C[N+](=O)[O-])NCCSCc1csc(CN(C)C)n1 = Compound metabolized
Nc1ccc(/N=N/c2ccccc2)c(N)n1 = Compound metabolized
C#C[C@]1(O)CC[C@H]2[C@@H]3CCC4=Cc5oncc5C[C@]4(C)[C@H]3CC[C@@]21C = Compound metabolized
O=C1N=C([O-])NC1(c1ccccc1)c1ccccc1.[Na+] [PHENYTOIN SODIUM] = Compound NOT metabolized

Entry OCCOCCN1CCN(C2=Nc3ccccc3Sc3ccccc32)CC1 , Bacterial Biotransformation reported as Compound NOT metabolized
